Numbers sourced from patent US20250339547A1.

Test system: HCC78
Assay: Lung cancer cell line viability, single agent or 1:1 combination (CTG 120h), Example 7
Assay type: cell-based
Settings: Homo sapiens, HCC78, 120 h, HCC78, CTG 120 h, n1
Method: Cell lines were cultured in the media described above at 37° C. in a humidified atmosphere containing 5% CO2. […] Effect on cell viability was assessed after 5 days of incubation at 37° C./5% CO2 by quantification of cellular ATP levels using CellTiter-Glo reagent (Promega Ref: G7571) at 75 μL reagent/well. […] Luminescence was quantified on a multipurpose plate reader. IC50s were calculated using standard four-parametric curve fitting. […]
measured.attribute: IC50 (nM)

(a) Cc1c(Nc2nc3ccccc3s2)nnc2c1CCCN2c1ccc(-c2cnn(C[C@]34C[C@]5(C)C[C@](C)(C3)C[C@@](OCCNCCCO)(C5)C4)c2C)c(C(=O)O)n1
(b) CC(=O)O[C@H]1C(=O)[C@@]2(C)[C@H]([C@H](OC(=O)c3ccccc3)[C@]3(O)C[C@H](OC(=O)[C@H](O)[C@@H](NC(=O)c4ccccc4)c4ccccc4)C(C)=C1C3(C)C)[C@]1(OC(C)=O)CO[C@@H]1C[C@@H]2O
Q: Hello, I am sorting some records. Could you say if a or b has the smaller IC50 value? Please reply using the label of the selected record.
Result: b
(b: 2.52 nM, a: 3220 nM)

* * *

system: KP-4; assay: Pancreatic cancer cell line viability, single agent or 1:1 combination (CTG 120h), Example 10; assay type: cell-based; conditions: Homo sapiens, KP-4, 120 h, KP-4, CTG 120 h, mean
pIC50: −log10 of the molar value.
measured.attribute: pIC50

(A) Nc1ccn([C@@H]2O[C@H](CO)[C@@H](O)C2(F)F)c(=O)n1
(B) CC(=O)Nc1cccc(-n2c(=O)n(C3CC3)c(=O)c3c(Nc4ccc(I)cc4F)n(C)c(=O)c(C)c32)c1
(C) CC(=O)O[C@H]1C(=O)[C@@]2(C)[C@H]([C@H](OC(=O)c3ccccc3)[C@]3(O)C[C@H](OC(=O)[C@H](O)[C@@H](NC(=O)c4ccccc4)c4ccccc4)C(C)=C1C3(C)C)[C@]1(OC(C)=O)CO[C@@H]1C[C@@H]2O
(D) Cc1c(Nc2nc3ccccc3s2)nnc2c1CCCN2c1ccc(-c2cnn(C[C@]34C[C@]5(C)C[C@](C)(C3)C[C@@](OCCNCCCO)(C5)C4)c2C)c(C(=O)O)n1
Q: Arrange the above in rising order of pIC50. # the answer lists labels in the order requested
Result: D, B, A, C
(D: 4.77, B: 5.78, A: 7.96, C: 8.63)

* * *

system: NCI-H1975; assay: Lung cancer cell line viability, single agent or 1:1 combination (CTG 120h), Example 7; format: cell-based; settings: Homo sapiens, NCI-H1975, 120 h, NCI-H1975, CTG 120 h, Mean
pIC50: −log10 of the molar value.
measured.attribute: pIC50

(a) Cc1c(Nc2nc3ccccc3s2)nnc2c1CCCN2c1ccc(-c2cnn(C[C@]34C[C@]5(C)C[C@](C)(C3)C[C@@](OCCNCCCO)(C5)C4)c2C)c(C(=O)O)n1 [P25]
(b) CC(=O)O[C@H]1C(=O)[C@@]2(C)[C@H]([C@H](OC(=O)c3ccccc3)[C@]3(O)C[C@H](OC(=O)[C@H](O)[C@@H](NC(=O)c4ccccc4)c4ccccc4)C(C)=C1C3(C)C)[C@]1(OC(C)=O)CO[C@@H]1C[C@@H]2O [Paclitaxel, paclitaxel]
Q: Form field 'greater pIC50' accepts a or b ; which applies? Please reply using the label of the selected record.
Result: b
